Target: T1, Macaca fascicularis CD123 Fc-fusion protein (Macaca fascicularis)
T1 construct: also called cyno CD123-Fc
T1 sequence (chain, as listed by the source limits assumed): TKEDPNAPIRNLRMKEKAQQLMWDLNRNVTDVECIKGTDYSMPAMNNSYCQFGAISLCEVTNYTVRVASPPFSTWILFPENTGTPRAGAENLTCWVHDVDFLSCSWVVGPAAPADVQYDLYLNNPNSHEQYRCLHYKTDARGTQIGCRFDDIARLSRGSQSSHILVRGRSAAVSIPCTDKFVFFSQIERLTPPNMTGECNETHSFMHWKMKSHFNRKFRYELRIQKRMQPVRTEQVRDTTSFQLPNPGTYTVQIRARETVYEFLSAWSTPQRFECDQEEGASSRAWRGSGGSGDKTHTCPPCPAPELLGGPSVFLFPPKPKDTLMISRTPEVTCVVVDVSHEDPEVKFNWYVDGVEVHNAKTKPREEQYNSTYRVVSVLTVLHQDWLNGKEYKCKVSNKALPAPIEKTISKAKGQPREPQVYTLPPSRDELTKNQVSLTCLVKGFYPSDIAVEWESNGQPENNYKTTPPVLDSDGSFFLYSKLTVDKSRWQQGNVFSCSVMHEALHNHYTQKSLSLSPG
Test: SPR Proteon XPR36, rat IgG captured, CD123-Fc analyte
Property: Kd (nM)
Kindly answer with a numeric value in nM, unit omitted.

Below: 5 binders and their reported Kd.
Kd for 6B10-E4 anti-CD123 rat IgG (hybridoma supernatant) (antibody, V domains shown, rat IgG; also called BFX - 6B10) VH: EVQLVESGGGLVQPGRSLKLSCAASGFTFSHYNMAWVRQAPKKGLEWVATITYDDHSTYYRDSVKGRFTISRDTAKSTLYLQMDSLRSEDTATYYCARLVNYAFAYWGQGTLVTVSS VL: NIVMTQSPKSMSISVGDRVTMNCKASQTVGNNIAWYQQKPGLSPQLLIDYASNRYTGVPNRFTGGGYGTDFILTINSVQAEDAAFYYCQRMYNSPTFGGGTKLELK is 0.1

Measured Kd of 2B8-F3 anti-CD123 rat IgG (hybridoma supernatant) (antibody, V domains shown, rat IgG; also called BFX - 2B8) VH: EVQLVESGGGLVQPGRSLKLSCAASGFTFSDYNMAWVRQAPKKGLEWVATILYDGGRTYYRGSVKGRFTISRDNAKSTLYLRMDSLRSEDTATYYCATHSRGTDYFDYWGQGVMVTVSS VL: EIVLTQSPTSMTASPGEQVTITCRASSSINYMHWYQQKPGASPRPWIYETSKLASGVPDRFSGSASGTSYSLTINNMEAEDAATYYCQQWNYPSWTFGGGTKLELK : 0.77

// 2F8-D6 anti-CD123 rat IgG (hybridoma supernatant) (antibody, V domains shown, rat IgG; also called BFX - 2F8) VH: QVQLKESGPGLVQPSQTLSLTCTVSGFSLTSYGVSWVRQPPGKGLEWIATISSAGSTYYDLVLKSRLSITRDTSKSQVFLKVHSLQTEDTAIYLCARDAPVFNYGSYNAMDSWGQGTSVTVSS VL: DIQMTQSPSFLSATVGDRVTINCKASQNINKYLNWYQQKLGEAPKRLIYNTNSLQTGIPSRFSGSGSGTDYTLTISSLQPEDVATYFCLQHKSGLTFGSGTKLEIK : Kd value = 0.51

Noted for 8B11-B7 anti-CD123 rat IgG (hybridoma supernatant) (antibody, V domains shown, rat IgG; also called BFX - 8B11) VH: QVQLQESGPTLVNPGDSVKMSCKASGYTFTDHIIHWVKQSHGKSLEWIGYINPYSGGANYNGKFKSKATLTIDKSSSTAYMEFSRLTSGDSAIYYCALNYGSYYAMDAWGQGTSVTVSS VL: DIQMTQSPASLSASLGETVTIECRTSKDIYSNLAWFQQEPGNSPQLLIYDASNLADGVPSRFSGSGSGTQYSLQINNLQSEDVASYFCHQYNNYPYTFGTGTKLELK : its Kd reads 0.1

// sample 9F6-G3 anti-CD123 rat IgG (hybridoma supernatant) (antibody, V domains shown, rat IgG; also called BFX - 9F6) VH: QVQLQESGPTLVKPGDSVKMSCKASGYTFTDYIIHWVKQSHGKSLEWIGYINPYSDGTNYNEKFKSKATLTVDKSTSTAYMEFSRLTSEDSAIYFCALNYGSYYAMDAWGQGTSVTVSS VL: DIQMTQSPASLSASLGETVTIECRPSEDIHSNVAWYQQKPGNSPQLLIYDASNLADGVPSRFSGSGSGTQYSLKINSLQSEDVASYFCHQYNIYPYTFGSGTKLELK , its Kd was 0.5

Consider the record given below.
Item: 9B8-G6 anti-CD123 rat IgG (hybridoma supernatant) (antibody, V domains shown, rat IgG; also called BFX - 9B8) VH: EVKLQESGPSLVQSSQTLSLTCTVSGFSLTSYHIHWVRQPPGKGLEWMGVMWSDGDTSYSSALKSRLSISRDTSQSQVFLKMNSLQTEDTATYYCARGDYSSYIYLWFAYWGQGTLVTVSS VL: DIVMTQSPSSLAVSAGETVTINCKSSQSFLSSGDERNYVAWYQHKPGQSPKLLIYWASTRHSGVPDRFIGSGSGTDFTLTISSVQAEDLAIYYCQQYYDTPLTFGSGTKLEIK | Kd: 0.17
